Reference for the values: the antibiotic and cytotoxicity screens of Wong et al. (2023)

Test system: HepG2
Test: cytotoxicity call (relative viability < 0.9)
Settings: 10 µM
The whole screen tested about 39,000 compounds, of which about 3,300 (8.5%) were called active. What follows is part of a selection rich in actives, with near analogues and random picks from the rest.
Would you mind answering with one of these outcomes? True = active, False = inactive

Example entries and their recorded answers appear below.
CC(=O)Oc1cc2c(c(C)c1OC(C)=O)CC=C1[C@@]2(C)CC[C@@]2(C)[C@H]3C[C@](C)(C(=O)O)CC[C@]3(C)CC[C@]12C ... True
COc1ccc(C#Cc2ccc3c(c2)O[C@@H](CN(C)C(=O)c2ccccn2)[C@@H](C)CN([C@@H](C)CO)S3(=O)=O)cc1 ... False
COc1ccc(C(=O)Nc2cccc(CN3C(=O)[C@@]4(O[C@@H](CC(=O)N5CCC[C@H]5CO)[C@H]([Si](C)(C)c5ccc(OC)cc5)[C@H]4C)c4ccccc43)c2)cc1 ... False
C[C@@H]1CN([C@@H](C)CO)C(=O)c2cccc(NC(=O)Nc3ccccc3)c2O[C@@H]1CN(C)S(=O)(=O)c1cn(C)cn1 ... False
Cc1cc(O)c(C=O)c2c1C(=O)Oc1c(COC(=O)C=CC(=O)O)c(O)c(C(=O)O)c(C)c1O2 ... False
CCOc1ccnc2c1c(=O)n(CC(N)=O)c(=O)n2C ... False

Query :: Hi, sorry to bother you, what did the test record for COc1ccc(C(=O)Nc2cccc(CN3C(=O)[C@@]4(O[C@@H](CC(=O)N5Cc6ccccc6C[C@H]5CO)[C@H]([Si](C)(C)c5ccc(OC)cc5)[C@H]4C)c4ccccc43)c2)cc1 ?
Result :: True

Query :: Hi, sorry to bother you, what did the test record for COc1cc(-c2coc3cc(OC4OC(CO)C(O)C(O)C4O)c(OC)c(O)c3c2=O)cc(O)c1OC (centres undefined) ?
Result :: True

Query :: Hi, sorry to bother you, what did the test record for COc1ccc([Si](C)(C)[C@@H]2[C@@H](CC(=O)N3Cc4ccccc4C[C@H]3CO)O[C@]3(C(=O)N(Cc4ccc(N5CCOC5=O)cc4)c4ccccc43)[C@H]2C)cc1 ?
Result :: False

Query :: Hi, sorry to bother you, what did the test record for CN1CCC(=C2c3ccccc3CC(=O)c3sccc32)CC1.O=C(O)C=CC(=O)O ?
Result :: False

Query :: Hi, sorry to bother you, what did the test record for COc1ccc(C(=O)Nc2ccc(CN3C(=O)[C@]4(O[C@H](CC(=O)N5Cc6ccccc6C[C@H]5CO)[C@@H]([Si](C)(C)c5ccc(OC)cc5)[C@@H]4C)c4ccccc43)cc2)cc1 ?
Result :: True

Query :: Hi, sorry to bother you, what did the test record for C[C@@H]1CN([C@@H](C)CO)C(=O)Cc2cc(NS(=O)(=O)c3cn(C)cn3)ccc2O[C@@H]1CN(C)S(=O)(=O)c1ccc(Cl)cc1 ?
Result :: False

Query :: Hi, sorry to bother you, what did the test record for C[C@@H]1CN([C@@H](C)CO)S(=O)(=O)c2ccc(-c3cccnc3)cc2O[C@@H]1CN(C)CC1CCOCC1 ?
Result :: False
